Values from ChEMBL document CHEMBL1142504

- measurement-description: Cytotoxicity against HEL cells assessed as morphological alteration after 3 days
- Format: cell-based
- experimental-setup: human
property-measured: MCC at 72 h

INSERT INTO measurements (structure_smiles, val) VALUES
  ('Cc1cc(Sc2ccc(Cl)cc2)cn2c(CSCCc3ccccc3)cnc12', '20 µg/mL'),
  ('Cc1cc(-c2ccc(C=O)cc2)cn2c(CSCCc3ccccc3)cnc12', '100 µg/mL');

[in] Please give the measured MCC at 72 h for this compound: "Cc1cc(-c2ccco2)c2ncc(CSCCc3ccccc3)n2c1"
[out] 100 µg/mL

[in] Please give the measured MCC at 72 h for this compound: "C=Cc1ccc(-c2cc(C)c3ncc(CSCc4ccccc4)n3c2)cc1"
[out] ≥ 100 µg/mL

[in] Please give the measured MCC at 72 h for this compound: "Cc1cc(-n2cccc2)cn2c(CSCCc3ccccc3)cnc12"
[out] ≥ 4 µg/mL

[in] Please give the measured MCC at 72 h for this compound: "Cc1cc(C#N)cn2c(CSCCc3ccccc3)cnc12"
[out] 20 µg/mL

[in] Please give the measured MCC at 72 h for this compound: "Cc1cc(-n2ccc3cccnc32)cn2c(CSCCc3ccccc3)cnc12"
[out] 20 µg/mL
